Target Under Test: human G protein-coupled receptor protein hOT7T022 (human, UniProt Q9GZQ6 1-430)
Sequence (Q9GZQ6 whole entry): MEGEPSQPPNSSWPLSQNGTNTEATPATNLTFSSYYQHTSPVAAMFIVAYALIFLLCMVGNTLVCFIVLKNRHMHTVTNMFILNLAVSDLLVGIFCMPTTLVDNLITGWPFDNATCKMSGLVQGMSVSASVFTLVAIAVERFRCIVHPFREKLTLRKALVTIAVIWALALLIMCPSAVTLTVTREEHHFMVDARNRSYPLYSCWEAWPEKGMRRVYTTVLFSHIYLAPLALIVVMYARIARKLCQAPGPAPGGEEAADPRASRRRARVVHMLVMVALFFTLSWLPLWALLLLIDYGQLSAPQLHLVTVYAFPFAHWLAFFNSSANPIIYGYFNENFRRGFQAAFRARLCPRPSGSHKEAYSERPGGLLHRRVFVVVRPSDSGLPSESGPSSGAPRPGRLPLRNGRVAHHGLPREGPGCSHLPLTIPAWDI
Procedure Details: cell-based or functional assay
Ends that are not written are not given here.
The binders listed here are annotated with their ED50, inhibition of the increased cAMP level in the cells by the forskolin treatment.
Measurement Label: ED50, inhibition of the increased cAMP level in the cells by the forskolin treatment

- Binder: "PQRF-NH2 [PQRFamide (peptide shown by Pro-Gln-Arg-Phe-NH2)]"
  Result: "≥ 1000 nM"
- Binder: "SLNFEELKDWGPKNVIKMSTPAVNKMPHSFANLPLRF-NH2 [hRFRP-1-37 (peptide having the 56 (Ser) to 92 (Phe) amino acid sequence in SEQ ID NO: 1)]"
  Result: "21 nM"
- Binder: "SVTFQELKDWGAKKDIKMSPAPANKVPHSAANLPLRF (ends and bridges not checked) [rRFRP-1-37 (peptide having the 58 (Ser) to 94 (Phe) amino acid sequence in SEQ ID NO: 50)]"
  Result: "30 nM"
- Binder: "MPHSFANLPLRF-NH2 [peptide MPHSFANLPLRFamide (SEQ ID NO: 39)]"
  Result: "4.5 nM"
